Assign normalized growth to each entry below.
ASSAY_TEXT: chemical genetic growth profiling, strain panel (AID 1159580);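 also: tested at 20 µM; growth read once vehicle control cultures reached saturation at 30 °C; 1 = growth at the plate median or of vehicle wells; lower values mean less growth of the strain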
TEST_SETTINGS: S. cerevisiae deletion strains, growth OD, locus YDR318W, strain mcm21, active compounds read low
Among all 5,500 compounds or so, about 2,000 (36%) were called active. Another 18% or so got no clear call; they are omitted. Some of the results follow.
Give bare numbers.

Use the examples below as a reference point.
CC(C)(S)[C@@H](N)C(=O)O | 0.994
N[C@@H](C(=O)O)[C@@H](O)[C@H](O)[C@H](O)CO | 1

The record that follows has no normalized growth shown yet.
Ask: # input compound: `Fc1ccc([C@@H]2CCNC[C@H]2COc2ccc3c(c2)OCO3)cc1` ; wanted: its normalized growth
Result: 1.02

* * *

ASSAY_TEXT: chemical genetic growth profiling, strain panel (AID 1159580);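 also: tested at 20 µM; growth read once vehicle control cultures reached saturation at 30 °C; 1 = growth at the plate median or of vehicle wells; lower values mean less growth of the strain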
TEST_SETTINGS: S. cerevisiae deletion strains, growth OD, locus YHR205W, strain SCH9, active compounds read low
The campaign covered roughly 5,500 compounds. About 2,000 (36%) were called active. About 18% were inconclusive and are not listed. This is one part of the list.
OBSERVATION_TYPE: normalized growth
Answers are plain numbers.

Use the examples below as a reference point.
Cc1cccc(N=NC(C(=O)C(F)(F)F)=C(O)c2cccs2)c1 | 0.985
Brc1ccc(-c2csc(-c3cccnc3)n2)cc1 | 0.643
Clc1ccccc1-c1csc(-c2ccncc2)n1 | 1.03

The record that follows has no normalized growth shown yet.
Ask: # input molecule: `C[C@@H](Nc1ncnc2sc3c(c12)CCCC3)c1ccccc1` ; wanted: its normalized growth
Result: 0.877

* * *

ASSAY_TEXT: chemical genetic growth profiling, strain panel (AID 1159580);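 also: tested at 20 µM; growth read once vehicle control cultures reached saturation at 30 °C; 1 = growth at the plate median or of vehicle wells; lower values mean less growth of the strain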
TEST_SETTINGS: S. cerevisiae deletion strains, growth OD, locus YDR101C, strain arx1, active compounds read low
In all, about 5,500 compounds went through this assay and about 2,000 (36%) were called active. Roughly 18% stayed inconclusive and do not appear here. The list shows a part of the results.
OBSERVATION_TYPE: normalized growth
One number for each entry.

Use the examples below as a reference point.
COc1ccc2c(c1)OCC(Cc1ccc(OC)c(OC(C)=O)c1)C2=O (configuration not stated) | 0.996
COc1ccc2c(c1)OCC(Cc1ccc(OC)c(O)c1)C2=O (configuration not stated) | 0.972

Can you give me normalized growth for all of these, one by one?
1. CCCCCCCCCCCCCC(=O)OC1C(C)C2(O)C(C=C(CO)CC3(O)C(=O)C(C)=CC32)C2C(C)(C)C12OC(C)=O (configuration not stated)
2. CC(=O)C1CC[C@H]2C3CC[C@H]4C[C@H](O)CC[C@]4(C)C3CC[C@]12C (some centres not stated)
3. CCC(C)C(=O)c1c(O)c(C)c2oc3c(C)c(O)c(C(=O)C(C)CC)c(O)c3c2c1O (configuration not stated)
4. C[C@]12CCC3C(CC[C@H]4C[C@H](O)CC[C@]34C)C1CC[C@@H]2O (some centres not stated)
5. COC1=CC(=O)OC(CCc2ccc(OC)c(OC)c2)C1 (configuration not stated)

Result:
0.996
1.01
0.987
0.991
1.01

* * *

ASSAY_TEXT: chemical genetic growth profiling, strain panel (AID 1159580);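 also: tested at 20 µM; growth read once vehicle control cultures reached saturation at 30 °C; 1 = growth at the plate median or of vehicle wells; lower values mean less growth of the strain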
TEST_SETTINGS: S. cerevisiae deletion strains, growth OD, locus YGL240W, strain doc1, active compounds read low
About 2,000 (36%) of roughly 5,500 compounds were called active. Not shown: some 18% with an inconclusive outcome. This is one part of the list.
OBSERVATION_TYPE: normalized growth
Numbers only.

Use the examples below as a reference point.
CN(C)C(=O)Oc1ccc[n+](C)c1 | 1.01
CC(=O)C1CCC2C3CCC4C[C@H](O)CCC4(C)C3C[C@H](O)C12C (some centres undefined) | 0.984

Can you give me normalized growth for all of these, one by one?
1. NC(C(=O)O)C(O)C(=O)O (centres undefined)
2. O=C(O)C(O)C(O)C(=O)O (centres undefined)
3. O=C(O)[C@@H](S)[C@@H](S)C(=O)O
4. NC(N)=NCCCCN=C(N)N
5. Cc1cc(CC(=O)O)n(C)c1C(=O)c1ccc(Cl)cc1
6. O=c1[nH]c(=O)n(C2C[C@H](O)[C@@H](CO)O2)cc1C(F)(F)F (some centres undefined)
7. O=C(O)COc1ccc(Cl)cc1Cl
8. NC(=O)NC1NC(=O)NC1=O (centres undefined)

Result:
1: 1; 2: 0.991; 3: 0.886; 4: 1; 5: 1; 6: 1; 7: 0.982; 8: 0.996

Can you give me normalized growth for all of these, one by one?
1. CC1C/C=C/C=C/C=C/C=C/C(O[C@@H]2O[C@H](C)[C@@H](O)[C@H](N)[C@@H]2O)CC2OC(O)(CC(O)CC3OC3/C=C/C(=O)O1)CC(O)C2C(=O)O (some centres undefined)
2. Cc1nnc(NS(=O)(=O)c2ccc(N)cc2)s1

Result:
1: 0.996; 2: 1.02
